Values compiled from ChEMBL document CHEMBL2062401.

This listing pairs compounds with measured Activity.
Tested on: Rattus norvegicus
Test: Gastrointestinal toxicity in Wistar albino rat assessed as incidence of stomach ulceration at 0.029 mmol/kg, po followed by another two compound doses in second and third days measured on fourth day post dose by acute ulcerogenicity study
Format: organism-based
Conditions: in vivo
Answer with a number only, understood to be in %.

Worked set:
Query block: Bench note: what Activity did Cc1ccc(-c2cc(C(F)(F)F)nn2-c2ccc(S(N)(=O)=O)cc2)cc1 [CELECOXIB] show?
Result block: 6.66

Query block: If you can, please state the reported Activity value of Cc1c(NC(=O)c2nc3c(c(=O)[nH]2)C2CCCN2C(=O)N3c2ccccc2)c(=O)n(-c2ccccc2)n1C (stereo unspecified) .
Result block: 5

Query block: Look up Activity: O=C(O)Cc1nc2c(c(=O)[nH]1)C1CCCN1C(=O)N2c1ccccc1 (stereo unspecified)
Result block: 8.33

Further cases:
Query block: Query (compound): COc1ccc2c(c1)c(CC(=O)O)c(C)n2C(=O)c1ccc(Cl)cc1 [INDOMETHACIN] ; field requested: Activity
Result block: 10

Query block: Which Activity is reported for this compound? Cc1cc(-c2ccccc2)nn1C(=O)c1nc2c(c(=O)[nH]1)C1CCCN1C(=O)N2c1ccccc1 (stereo unspecified)
Result block: 6.66

Query block: If you can, please state the reported Activity value of CCOC(=O)Cc1nc2c(c(=O)[nH]1)C1CCCN1C(=O)N2c1ccccc1 (stereo unspecified) .
Result block: 5
